Data origin: ChEMBL document CHEMBL5223088

- PROTOCOL: Solubility of the compound
- Assay type: ADME
METRIC_NAME: solubility (µM)

1. COc1cc(/C=C/C(=O)NCCn2c(C)cc3ccccc32)cc(OC)c1OC ... 45
